The entries below are paired with their reported TGI.
Tested on: EKVX NSCLC
Method: NCI tumour cell line growth inhibition, 48 h
Quantity: TGI

INSERT INTO measurements (compound, subject_of_test, result) VALUES
  ('CCN(CC)CCn1ncc2ccc3c(c(=O)c4cccnc4n3CCN(CC)CC)c21', 'EKVX NSCLC', '6.83 µM'),
  ('Cc1ccc2nc3c(C(=O)NCCN(C)C)cccc3cc2c1', 'EKVX NSCLC', '2.78 µM'),
  ('Nc1[nH]c(=O)nc2sc3c(c12)CCCC3', 'EKVX NSCLC', '> 100 µM'),
  ('Cc1ccc2nc3c(Cl)cc(=O)cc-3sc2c1', 'EKVX NSCLC', '39.1 µM'),
  ('O=C1C2=C(C(=O)c3c(O)ccc(O)c31)N(c1ccc(N3CCOCC3)nc1)Cc1ccccc1O2', 'EKVX NSCLC', '1.67 µM'),
  ('Cc1c2ccccc2c(C)c2c3c(ccc12)C(=O)C=CC3=O', 'EKVX NSCLC', '> 85 µM'),
  ('COc1ccc(-c2cc(-c3ccccc3)n(C3OC(COC(C)=O)C(OC(C)=O)C(OC(C)=O)C3OC(C)=O)c(=S)c2C#N)cc1 (stereo not drawn)', 'EKVX NSCLC', '31.9 µM'),
  ('CC1=C(C)C(=O)OC(C(C)(O)C2(O)CCC3(O)C4CC(Cl)C5(O)C(O)C=CC(=O)C5(C)C4CCC32C)C1 (stereo not drawn)', 'EKVX NSCLC', '> 100 µM'),
  ('COc1cc2c(cc1C)NC(=O)/C2=C/c1c(Cl)[nH]c2cc(C)c(OC)cc12', 'EKVX NSCLC', '22.8 µM'),
  ('O=C(c1cc2ccccc2[nH]1)C(O)(c1cc2ccccc2[nH]1)c1cc2ccccc2[nH]1', 'EKVX NSCLC', '> 246 µM'),
  ('CCOC(=O)CC(=O)ON(C)C(=O)Cc1ccccc1', 'EKVX NSCLC', '> 100 µM'),
  ('Cc1cccc2c1Oc1cc(Cl)ccc1C2NC(=O)CCN1CCCCC1 (stereo not drawn)', 'EKVX NSCLC', '55.5 µM'),
  ('COc1ccc(C2CCc3nc4nc(N)nc(N)c4cc3C2)cc1 (stereo not drawn)', 'EKVX NSCLC', '> 100 µM'),
  ('N#CS/C(C(Cl)=C(Cl)Cl)=C(/Cl)[N+](=O)[O-]', 'EKVX NSCLC', '6.76 µM'),
  ('c1ccc(Cc2cccc3cc(-c4ccc(-c5ccccc5)cc4)[nH]c23)cc1', 'EKVX NSCLC', '> 100 µM'),
  ('CCOc1ccccc1NC(=O)C(=O)CC(=O)C1=C(C)Nc2ccccc2S1', 'EKVX NSCLC', '> 100 µM'),
  ('O=C(Nc1ccc(Cl)cc1)c1cc(S(=O)(=O)Nc2n[nH]c(=O)[nH]2)c(SSc2cc(Cl)c(C(=O)Nc3ccc(Cl)cc3)cc2S(=O)(=O)Nc2n[nH]c(=O)[nH]2)cc1Cl', 'EKVX NSCLC', '> 100 µM'),
  ('CCN(CC)CCN1c2ccccc2Sc2ccc3ccccc3c21', 'EKVX NSCLC', '20.1 µM'),
  ('CC(=O)CC(=O)CCCC(=O)Nc1ccc(Cl)cc1C', 'EKVX NSCLC', '> 100 µM'),
  ('CC(C)(C)OC(=O)N1C(C2=COc3ccccc3O2)=COc2ccccc21', 'EKVX NSCLC', '52.3 µM'),
  ('COC(=O)CCC(NC(=S)N/N=C(\C)c1ccccn1)C(=O)OC (stereo not drawn)', 'EKVX NSCLC', '> 100 µM'),
  ('O=C(CC(=O)c1ccncc1)c1ccccc1', 'EKVX NSCLC', '> 100 µM'),
  ('NC(=O)c1cnc2sc3ccccc3n2c1=O', 'EKVX NSCLC', '> 100 µM'),
  ('CC(=O)OCC1C(C(C)OC(C)=O)CCC2C1CCC1(C)C(OC(C)=O)CCC21 (stereo not drawn)', 'EKVX NSCLC', '32.9 µM'),
  ('Nc1nnc2nc(CC(=O)/C=C/c3ccccc3)c(=O)[nH]n12', 'EKVX NSCLC', '> 100 µM'),
  ('CC(=O)OC1C=CC2CCN3C(=O)c4cc5c(cc4[C@H]1C23)OCO5 (stereo partly drawn)', 'EKVX NSCLC', '> 100 µM'),
  ('Cc1csc2c(P(=O)(OC(C)C)OC(C)C)c(-c3ccccc3)cn12', 'EKVX NSCLC', '32.5 µM'),
  ('COCCc1c(C)c(C#N)c2n(C)c3ccccc3n2c1=O', 'EKVX NSCLC', '> 10 µM'),
  ('Nn1c(CNc2ccc(-c3nnc(Nc4ccc(Cl)cc4)n3N)cc2)nnc1Nc1ccc(Cl)cc1', 'EKVX NSCLC', '> 100 µM'),
  ('O=C(CCCn1c2c(sc3ncccc32)c(=O)n2nnc(-c3ccccc3)c12)NCCc1cnc[nH]1', 'EKVX NSCLC', '44.5 µM'),
  ('COc1cc(/C=C2\C(=O)N(c3cccc(Cl)c3)C(c3ccccc3)S2(=O)=O)cc(OC)c1OC (stereo not drawn)', 'EKVX NSCLC', '> 100 µM'),
  ('O=C1/C(=C/c2ccc(O)cc2)NC(=S)N1CN1CCCCC1', 'EKVX NSCLC', '> 100 µM'),
  ('CN1CCc2c(sc3nc(Nc4ccccc4)n(N)c(=O)c23)C1', 'EKVX NSCLC', '> 100 µM'),
  ('CCN(CC)CCN1C(=O)c2cccc3c(-c4ccc5c(c4)ncn5C4CCCCC4)ccc(c23)C1=O', 'EKVX NSCLC', '3.18 µM'),
  ('COc1c(OC(C)=O)cc2c(OC(C)=O)c1CC(C)CC(OC)C(O)C(C)/C=C(\C)C(OC(N)=O)C(OC)/C=C\C=C(/C)C(=O)N2 (stereo not drawn)', 'EKVX NSCLC', '> 100 µM'),
  ('Cc1cc2c3ccccc3n(C)c2c2c1C(=O)c1ccccc1C2=O', 'EKVX NSCLC', '> 100 µM'),
  ('C=C1CC(OC(C)=O)/C=C(/C)CCC(C(C)(C)O)CC1O (stereo not drawn)', 'EKVX NSCLC', '> 100 µM'),
  ('C/C(CC(O)(C(F)(F)F)C(F)(F)F)=N\N', 'EKVX NSCLC', '> 10 µM');
